B1: RHOBTB1 (parent)
chain: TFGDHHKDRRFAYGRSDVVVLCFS

# Variants of: B1
# protocolDetails: protein stability index of a GFP-peptide fusion (GPS, HEK-293T) (PSI 1-6); higher = more stable;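 also: lentivirally expressed fusions sorted by FACS into six bins by GFP to DsRed ratio, PSI derived from sequencing read proportions per bin multiplied by bin number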
# measurementParameters: c terminus: a fixed tail appended
valueType: protein stability index
Lab note: record the figure alone, no unit after it.

    var  resultvalue
0  F23C         2.41

Which protein stability index value is on record for "S24D" ?
1.66

Item "G3F" has what recorded protein stability index?
1.39

Need protein stability index, item "F23Y"
2.22

Requested field: protein stability index. Item: "V19D"
2.93
